- tested_target: T1, recombinant cynomolgous IL-23 (cynomolgous)
- T1 chain 1: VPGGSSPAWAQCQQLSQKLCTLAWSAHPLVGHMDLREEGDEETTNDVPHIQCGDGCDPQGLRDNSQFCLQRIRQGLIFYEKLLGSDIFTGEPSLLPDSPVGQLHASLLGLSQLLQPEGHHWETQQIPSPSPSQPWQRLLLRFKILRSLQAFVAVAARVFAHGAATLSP
- T1 chain 2: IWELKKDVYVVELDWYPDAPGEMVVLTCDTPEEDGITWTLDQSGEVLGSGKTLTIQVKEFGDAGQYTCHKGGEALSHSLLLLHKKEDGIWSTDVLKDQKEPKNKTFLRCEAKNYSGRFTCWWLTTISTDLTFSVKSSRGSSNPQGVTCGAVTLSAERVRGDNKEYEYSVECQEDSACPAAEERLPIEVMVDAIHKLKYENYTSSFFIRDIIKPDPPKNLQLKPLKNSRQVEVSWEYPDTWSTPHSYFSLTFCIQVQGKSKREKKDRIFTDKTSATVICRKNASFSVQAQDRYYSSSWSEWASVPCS
- assay_notes: cell-based or functional assay
measured_parameter: IC50 (pM), NK cell assay (IFNγ)
Give bare numbers, in pM.

binder	IC50 (pM), NK cell assay (IFNγ)
Antibody B (antibody, V domains shown, also called VH9/VL9) VH: QVQLQESGPGLVKPSQTLSLTCTVSGGSISSGGYYWSWIRQHPGKGLEWIGHIHYSGNTYYNPSLKSRVTISVDTSKNQFSLKLSSVTAADTAVYYCAKNRGFYYGMDVWGQGTTVTVSS VL: DIQMTQSPSSVSASVGDRVTITCRASQVISSWLAWYQQKPGKAPSLLIYAASSLQSGVPSRFSGSVSGTDFTLTISSLQPEDFATYYCQQANSFPFTFGPGTKVDFK	19
Antibody M (antibody, V domains shown) VH: EVQLVESGGGLVQPGGSLRLSCAASGFTFSSYSMNWVRQAPGKGLEWVSYISSRSSTIYIADSVKGRFTISRDNAKNSLYLQMNSLRDEDTAVYYCARRIAAAGGFHYYYALDVWGQGTTVTVSS VL: QPVLTQPPSASASLGASVTLTCTLNSGYSDYKVDWYQQRPGKGPRFVMRVGTGGIVGSKGDGIPDRFSVLGSGLNRYLTIKNIQEEDESDYHCGADHGSGSNFVYVFGTGTKVTVL	12
Antibody K (antibody, V domains shown) VH: EVQLVESGGGLVQPGGSLRLSCVVSGFTFSSFSMNWVRQAPGKGLEWVSYISSRSSTIYYADSVKGRFTISRDNAKNSLYLQMNSLRDEDTAVYYCARRIAAAGPWGYYYAMDVWGQGTTVTVSS VL: QPELTQPPSASASLGASVTLTCTLSSGYSDYKVDWYQLRPGKGPRFVMRVGTGGTVGSKGEGIPDRFSVLGSGLNRSLTIKNIQEEDESDYHCGADHGSGSNFVYVFGTGTKVTVL	8
Antibody I (antibody, V domains shown) VH: QVQLQESGPGLVKPSETLSLTCTVSGGSISTYYWSWIRQPAGKGLEWIGLIYTSGSTNYNPSLKSRVTMSLDTSKNQFSLRLTSVTAADTAVYYCARDRGYYYGVDVWGQGTTVTVSS VL: DIQLTPSPSSVSASVGDRVTITCRASQGIAGWLAWYQQKPGKAPKLLIYAASSLQSGVPSRFSGSGSGTDFTLTISSLQPEDFATYYCQQADSFPPTFGGGTKVEIK	52
Antibody A (antibody, V domains shown) VH: QVQLQESGPGLVKPSQTLSLTCTVSGGSISSGGYYWSWIRQHPGKGLEWIGYIYYSGSTYYNPSLKSRVTMSVDTSKNQFSLKLSSVTAADTAVYYCAKNRGFYYGMDVWGQGTTVTVSS VL: DIQLTQSPSSVSASVGDRVTITCRASQVISSWFAWYQQKPGKAPNLLIYAASSLQSGVPSRFSGSGSGTDFTLTISSLQPADFATYFCQQANSFPFTFGPGTKVDVK	31

Would you mind telling me what IC50 (pM), NK cell assay (IFNγ) value was observed for Antibody H (antibody, V domains shown) VH: QVQLQESGPGLVKPSQTLSLTCTVSGGSISSGGYYWTWIRQHPGKGLEWIGYIYYSGNTYYNPSLKSRITISVDTSKNQFSLSLSSVTAADTAVYYCARNRGYYYGMDVWGQGTTVTVSS VL: DIQMTQSPSSVSASVGDRVTITCRASQGFSGWLAWYQQKPGKAPKLLIYAASSLQSGVPSRFSGSGSGTDFTLTISSLQPEDFATYYCQQANSFPFTFGPGTKVDIK ?
33

This collection of values is drawn from patent US20200181255A1.
